Origin of the recorded values: paper PMC12470129

Consider the following compounds; for each one, report its inhibition at 10 µM.
# EXPERIMENTAL_TARGET: 11β-HSD1 (Homo sapiens, UniProt P28845)
# Construct: human liver microsomes were used as a source of the 11β‐HSD1 enzyme; tissue XenoTech Lot No.1410013; host or cells: pooled human liver microsomes, mixed gender
# Sequence (P28845 whole entry): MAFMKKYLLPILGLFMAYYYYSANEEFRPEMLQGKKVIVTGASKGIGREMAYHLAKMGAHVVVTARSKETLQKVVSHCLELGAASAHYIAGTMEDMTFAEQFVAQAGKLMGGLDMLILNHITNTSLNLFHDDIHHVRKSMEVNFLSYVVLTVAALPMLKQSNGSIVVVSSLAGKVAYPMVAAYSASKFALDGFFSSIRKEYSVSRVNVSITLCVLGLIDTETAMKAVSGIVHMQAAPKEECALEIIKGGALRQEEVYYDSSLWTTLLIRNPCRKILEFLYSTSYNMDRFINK
# TEST: 11β-HSD1 inhibition assay (cortisone to cortisol, human liver microsomes, cortisol ELISA)
# Format: biochemical
# ASSAY_SETUP: at a concentration of 10 µM; human liver microsomes
Please give the number followed by its unit.

The examples below pair each entry with its known result.
| COMPOUND | RESULT |
| --- | --- |
| O=C1N=C(NC2CCCCC2)SC1c1ccccc1 (stereo not shown) | 83.8% |
| CCC1SC(NC2CCCCC2)=NC1=O (stereo not shown) | 68.5% |
| CC1(C)SC(NC2CCCCC2)=NC1=O | 82.6% |

Then this compound:
Ask: Look up inhibition at 10 µM for this compound: O=C1N=C(NC2CCCCC2)SC1c1ccc(Br)cc1 (stereo not shown)
Reply: 90.2%
